Origin of measurements: patent US20260097045A1

# System: A. baumannii
# protocolText: chequerboard assay (percentage of positive control, MIC, FIC) against A. baumannii
# Type: cell-based
# conditionLabel: Acinetobacter baumannii; agent alone; A. baumannii isolate; read-out: MIC Monotherapy (X)
Residues, ends and D or L forms follow the SMILES beside them.
Below: a set of entries, each annotated with reported MIC.

[
  {
    "molecule": "C[C@@H]1O[C@@H]1P(=O)(O)O",
    "MIC": "256 µg/mL"
  },
  {
    "molecule": "Cc1cn([C@H]2C[C@H](N=[N+]=[N-])[C@@H](CO)O2)c(=O)[nH]c1=O",
    "MIC": "512 µg/mL"
  },
  {
    "molecule": "CCC(C)CCCC(=O)N[C@@H](CCN)C(=O)N[C@H](C(=O)N[C@@H](CCN)C(=O)N[C@H]1CCNC(=O)[C@H]([C@@H](C)O)NC(=O)[C@H](CCN)NC(=O)[C@H](CCN)NC(=O)[C@H](CC(C)C)NC(=O)[C@@H](CC(C)C)NC(=O)[C@H](CCN)NC1=O)[C@@H](C)O (stereo partly drawn) (HELM PEPTIDE1{[CCC(C)CCCC(=O)[*:2]].[Dab].T.[Dab].[Dab].[Dab].[dL].L.[Dab].[Dab].T}$PEPTIDE1,PEPTIDE1,5:R3-11:R2$$$V2.0)",
    "MIC": "128 µg/mL"
  },
  {
    "molecule": "CC(C)(O/N=C(\\C(=O)N[C@@H]1C(=O)N2C(C(=O)[O-])=C(C[n+]3ccccc3)CS[C@H]12)c1csc(N)n1)C(=O)O",
    "MIC": "512 µg/mL"
  }
]

---

Listed here: items and their measured MIC combination therapy (Y).
# Test system: P. aeruginosa
# protocolText: chequerboard assay (percentage of positive control, MIC, FIC) against P. aeruginosa
# Type: cell-based
# conditionLabel: agent within zidovudine + meropenem + colistin + ceftazidime (Example 13)
# Protocol: FICI or fractional inhibitory concentration index is the sum of the FICs of each antimicrobial when used in combination. […] In the method for a 3-mer combination, one antibiotic was “fixed” as part of a backbone whilst the two other antibiotics were varied over a doubling concentration scale beginning at the MIC (×1) for the effective dose in monotherapy against the organism being tested. The ΣFIC was then calculated as shown below. […] Plates were read at OD600 in a 96-well plate reader. […]
Residues, ends and D or L forms follow the SMILES beside them.
reportedProperty: MIC combination therapy (Y) (µg/mL)

[
  {
    "compound": "Cc1cn([C@H]2C[C@H](N=[N+]=[N-])[C@@H](CO)O2)c(=O)[nH]c1=O [Zidovudine]",
    "unitName": "µg/mL",
    "testValue": 1
  },
  {
    "compound": "C[C@@H](O)[C@H]1C(=O)N2C(C(=O)O)=C(S[C@@H]3CN[C@H](C(=O)N(C)C)C3)[C@H](C)[C@H]12 [Meropenem]",
    "unitName": "µg/mL",
    "testValue": 2
  },
  {
    "compound": "CCC(C)CCCC(=O)N[C@@H](CCN)C(=O)N[C@H](C(=O)N[C@@H](CCN)C(=O)N[C@H]1CCNC(=O)[C@H]([C@@H](C)O)NC(=O)[C@H](CCN)NC(=O)[C@H](CCN)NC(=O)[C@H](CC(C)C)NC(=O)[C@@H](CC(C)C)NC(=O)[C@H](CCN)NC1=O)[C@@H](C)O (stereo partly drawn) (HELM PEPTIDE1{[CCC(C)CCCC(=O)[*:2]].[Dab].T.[Dab].[Dab].[Dab].[dL].L.[Dab].[Dab].T}$PEPTIDE1,PEPTIDE1,5:R3-11:R2$$$V2.0)",
    "unitName": "µg/mL",
    "testValue": 2
  },
  {
    "compound": "CC(C)(O/N=C(\\C(=O)N[C@@H]1C(=O)N2C(C(=O)[O-])=C(C[n+]3ccccc3)CS[C@H]12)c1csc(N)n1)C(=O)O [Ceftazidime]",
    "unitName": "µg/mL",
    "testValue": 1
  }
]
